# measurementTarget: HIV-1 reverse transcriptase (Human immunodeficiency virus 1, UniProt P03366;P03366 P03366:600-1159,P03366:600-1039)
# protocolDescription: inhibition; Ki', RNA-dependent DNA polymerase activity
# assaySetup: tags: expressed in E. coli, purified per Davies et al. 1991; label: 5'-32P; intramolecular primer:template junction with internal loop (AA opposite CG)
quantity: Ki (nM)
State the answer as a number, implicitly in nM.

Query: Ki; subject: RT26 (ssDNA) DNA: ATCCGCCTGATTAGCGATACTTACGTGAGCGTGCTGTCCCCTAAAGGTGATACGTCACTTGAGCAAAATCACCTGCAGGGG
2.7
